measured on: IAPP fibrils (Homo sapiens, UniProt P10997)
Construct: purchased Bachem Inc
Sequence (P10997 34-70 limits assumed): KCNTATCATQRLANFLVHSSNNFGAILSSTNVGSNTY
assay overview: Thioflavin T fluorometry - disruption of type 2 diabetes IAPP fibrils
Format: biochemical
conditions used: IAPP:test compound wt/wt ratio 1:1; 25 μM pre-fibrillized IAPP, 37° C., 3 days; read-out: % Inhibition IAPP (result ± S.D.)
Excerpt: In this assay Thioflavin T binds specifically to fibrillar amyloid, and this binding produces a fluorescence enhancement at 485 nm that is directly proportional to the amount of IAPP fibrils present. The higher the fluorescence, the greater the amount of IAPP fibrils present (Naki et al, Lab. Invest. 65:104-110, 1991; Levine III, Protein Sci. 2:404-410, 1993; Amyloid: Int. J. Exp. Clin. Invest. 2:1-6, 1995). […]
readout label: inhibition
Answer shape: numeric part, then the unit.

>>> assay_result("O=C(Nc1ccc(O)c(O)c1)C(=O)Nc1ccc(O)c(O)c1 [Compound 63, oxalic acid bis(3,4-dihydroxyanilide)]")
"94.9%"
>>> assay_result("O=C(CCc1ccc(O)c(O)c1)Nc1ccc(O)c(O)c1 [Compound 57]")
"94.1%"
>>> assay_result("Oc1ccc(CCc2ccc(O)c(O)c2)cc1O [Compound 4, 1,2-bis(3,4-dihydroxyphenyl)ethane]")
"99.7%"

Here is the next item to consider.
The measured inhibition associated with O=C(c1ccc(O)c(O)c1)C(O)c1ccc(O)c(O)c1 (stereo not shown) [Compound 1, 3,4,3′,4′-tetrahydroxybenzoin] reads 99%
